Test system: MDA-MB-231
Assay: Antiproliferative activity against human MDA-MB-231 cells after 3 days by coulter counting method
Type: functional, cell-based
Conditions: MDA-MB-231, 72 h
Observed property: log10 IC50 (log10 of the value in nM)

- COc1ccc(/C=C\c2cc(OC)c(OC)c(OC)c2)cc1N: 1.08
- COc1ccc(/C=C\c2cc(OC)c(OC)c(OC)c2)cc1NC(=O)Oc1cccc(C(F)(F)F)c1: 1.15
- COc1ccc(/C=C\c2cc(OC)c(OC)c(OC)c2)cc1NC(=O)Oc1cccc(Cl)c1: 1.18
- COc1ccc(/C=C\c2cc(OC)c(OC)c(OC)c2)cc1NC(=O)Oc1cc(C)cc(C)c1: 1.08
- COc1ccc(/C=C\c2cc(OC)c(OC)c(OC)c2)cc1NC(=O)Oc1cccc(Br)c1: 1.13
- COc1ccc(/C=C\c2cc(OC)c(OC)c(OC)c2)cc1NC(=O)Oc1ccccc1Br: 1.13
- COc1ccc(/C=C\c2cc(OC)c(OC)c(OC)c2)cc1NC(=O)Oc1ccc(Cl)cc1: 0.97
- COc1cccc(OC(=O)Nc2cc(/C=C\c3cc(OC)c(OC)c(OC)c3)ccc2OC)c1: 0.90
- COc1ccc(/C=C\c2cc(OC)c(OC)c(OC)c2)cc1NC(=O)Oc1ccccc1C: 1.32
- COc1ccc(/C=C\c2cc(OC)c(OC)c(OC)c2)cc1NC(=O)Oc1cccc(F)c1: 1.17
- COc1ccc(/C=C\c2cc(OC)c(OC)c(OC)c2)cc1NC(=O)Oc1ccc(Br)cc1: 0.61
- COc1ccc(/C=C\c2cc(OC)c(OC)c(OC)c2)cc1NC(=O)Oc1ccc(Cl)c(C)c1: 0.60
- COc1ccc(/C=C\c2cc(OC)c(OC)c(OC)c2)cc1NC(=O)Oc1cccc(C)c1C: 1.82
- COc1ccc(/C=C\c2cc(OC)c(OC)c(OC)c2)cc1NC(=O)Oc1ccccc1C(F)(F)F: 1.14
- COc1ccc(/C=C\c2cc(OC)c(OC)c(OC)c2)cc1NC(=O)Oc1cccc(Cl)c1C: 1.15
- COc1ccc(/C=C\c2cc(OC)c(OC)c(OC)c2)cc1NC(=O)Oc1ccc(F)cc1: 1.14
- COc1ccc(/C=C\c2cc(OC)c(OC)c(OC)c2)cc1NC(=O)Oc1c(C)cccc1C: 1.88
